Experiment: Protection index, ratio of TD50 for neurotoxicity in ip dosed scPTZ induced Kunming mouse to ED50 for anticonvulsant activity in ip dosed scPTZ induced Kunming mouse
Format: toxicity, organism-based
Details: in vivo, read-out: Ratio TD50/ED50
Observed property: selectivity ratio

Fill blank: measured selectivity ratio of the compound O=C1CC(c2ccccc2F)n2nc(-c3ccccc3F)nc2N1 (stereo not drawn) is ____. > 11.3

Fill blank: measured selectivity ratio of the compound CCCCN1C(=O)CC(c2ccccc2)n2nc(-c3ccc(OC)cc3)nc21 (stereo not drawn) is ____. > 15.6

Fill blank: measured selectivity ratio of the compound CCCCN1C(=O)CC(c2ccccc2)n2nc(-c3ccc(C)cc3)nc21 (stereo not drawn) is ____. > 14.6

====

Biological target: Sodium channel protein type 2 subunit alpha (Homo sapiens, UniProt Q99250)
Sequence (Q99250 whole entry): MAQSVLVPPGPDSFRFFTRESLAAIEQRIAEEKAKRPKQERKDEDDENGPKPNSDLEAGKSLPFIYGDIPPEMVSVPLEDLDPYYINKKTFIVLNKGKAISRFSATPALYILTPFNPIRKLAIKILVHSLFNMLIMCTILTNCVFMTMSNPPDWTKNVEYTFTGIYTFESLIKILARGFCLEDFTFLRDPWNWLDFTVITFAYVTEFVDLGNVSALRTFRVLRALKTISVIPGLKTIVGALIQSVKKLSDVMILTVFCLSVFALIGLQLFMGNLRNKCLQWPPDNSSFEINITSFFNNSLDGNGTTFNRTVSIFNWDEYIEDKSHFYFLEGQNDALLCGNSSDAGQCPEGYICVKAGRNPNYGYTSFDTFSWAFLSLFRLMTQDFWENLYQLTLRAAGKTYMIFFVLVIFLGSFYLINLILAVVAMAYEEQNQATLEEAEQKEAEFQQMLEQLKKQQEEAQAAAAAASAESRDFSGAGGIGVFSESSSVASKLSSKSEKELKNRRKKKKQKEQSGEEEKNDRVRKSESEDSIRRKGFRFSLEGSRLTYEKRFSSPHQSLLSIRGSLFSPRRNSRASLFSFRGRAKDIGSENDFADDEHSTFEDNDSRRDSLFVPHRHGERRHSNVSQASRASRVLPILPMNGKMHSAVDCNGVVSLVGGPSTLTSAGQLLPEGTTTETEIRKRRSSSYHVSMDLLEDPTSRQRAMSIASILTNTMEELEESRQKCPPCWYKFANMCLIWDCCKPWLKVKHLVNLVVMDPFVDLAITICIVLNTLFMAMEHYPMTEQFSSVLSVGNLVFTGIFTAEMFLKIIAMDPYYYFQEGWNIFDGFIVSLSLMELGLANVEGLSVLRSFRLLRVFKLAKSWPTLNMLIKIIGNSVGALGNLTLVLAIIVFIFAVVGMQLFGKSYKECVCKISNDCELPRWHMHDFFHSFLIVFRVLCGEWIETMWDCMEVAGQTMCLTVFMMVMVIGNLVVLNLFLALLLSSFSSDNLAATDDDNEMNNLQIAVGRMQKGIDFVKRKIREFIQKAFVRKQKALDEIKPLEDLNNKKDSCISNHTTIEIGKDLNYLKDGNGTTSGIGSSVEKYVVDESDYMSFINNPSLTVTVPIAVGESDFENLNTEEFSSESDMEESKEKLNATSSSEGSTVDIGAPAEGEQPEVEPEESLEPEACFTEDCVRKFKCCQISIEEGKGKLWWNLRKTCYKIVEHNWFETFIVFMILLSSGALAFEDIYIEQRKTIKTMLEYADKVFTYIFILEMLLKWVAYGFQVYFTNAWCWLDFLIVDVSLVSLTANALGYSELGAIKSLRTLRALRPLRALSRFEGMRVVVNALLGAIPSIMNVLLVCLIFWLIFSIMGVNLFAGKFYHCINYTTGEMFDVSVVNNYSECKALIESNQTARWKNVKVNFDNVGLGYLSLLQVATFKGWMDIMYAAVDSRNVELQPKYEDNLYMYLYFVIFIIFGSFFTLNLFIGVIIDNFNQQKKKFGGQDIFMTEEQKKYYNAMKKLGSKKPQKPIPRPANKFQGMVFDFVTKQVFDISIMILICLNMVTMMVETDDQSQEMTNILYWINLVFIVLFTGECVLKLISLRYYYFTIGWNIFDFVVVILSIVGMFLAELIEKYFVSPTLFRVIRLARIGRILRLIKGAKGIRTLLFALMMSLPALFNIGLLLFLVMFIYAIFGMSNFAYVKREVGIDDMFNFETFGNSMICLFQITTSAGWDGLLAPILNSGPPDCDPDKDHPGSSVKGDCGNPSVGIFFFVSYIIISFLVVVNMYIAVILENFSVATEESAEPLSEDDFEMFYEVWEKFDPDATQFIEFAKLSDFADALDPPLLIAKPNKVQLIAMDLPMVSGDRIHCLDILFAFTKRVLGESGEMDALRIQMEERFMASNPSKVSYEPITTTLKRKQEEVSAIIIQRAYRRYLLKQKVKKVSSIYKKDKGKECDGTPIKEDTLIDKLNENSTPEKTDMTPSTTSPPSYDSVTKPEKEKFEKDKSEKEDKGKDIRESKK
Experiment: Inhibition of Nav 1.2 (unknown origin) expressed in HEK293 cells at -20 mV to -120 mV holding potential under inactivation state by whole-cell patch clamp analysis
I'd appreciate it if you could supply IC50 values for the items below.
State the answer as a number, implicitly in µM.

Fill blank: measured IC50 of the molecule O=C1CC(c2ccccc2F)n2nc(-c3ccccc3F)nc2N1 (configuration not stated) is ____. 19.9

Fill blank: measured IC50 of the molecule CCCCN1C(=O)CC(c2ccccc2)n2nc(-c3ccc(OC)cc3)nc21 (configuration not stated) is ____. 35

====

Assay: Neurotoxicity in ip dosed sc-PTZ induced Kunming mouse measured after 0.5 hrs by rotarod test
Type: toxicity, organism-based
Details: in vivo
Observed property: TD50 at 0.5 h

Fill blank: measured TD50 at 0.5 h of the molecule CCCCN1C(=O)CC(c2ccccc2)n2nc(-c3ccc(C)cc3)nc21 (stereo not drawn) is ____. > 267 mg/kg

Fill blank: measured TD50 at 0.5 h of the molecule CCCCN1C(=O)CC(c2ccccc2)n2nc(-c3ccc(OC)cc3)nc21 (stereo not drawn) is ____. > 267 mg/kg

Fill blank: measured TD50 at 0.5 h of the molecule O=C1CC(c2ccccc2F)n2nc(-c3ccccc3F)nc2N1 (stereo not drawn) is ____. > 267 mg/kg
